Origin of measurements: ChEMBL document CHEMBL1158445

assay: Selectivity, ratio of IC50 for BACE2 to IC50 for BACE1
value_type: Ratio IC50

CCc1cn2c3c(cc(C(=O)N[C@@H](Cc4ccccc4)[C@H](O)CNC4CC4)cc13)N(CC)S(=O)(=O)CC2
17
CCc1cn2c3c(cc(C(=O)N[C@@H](Cc4ccccc4)[C@H](O)CNCc4cccc(OC)c4)cc13)NS(=O)(=O)CC2
76
CCNc1cc(C(=O)N[C@@H](Cc2ccccc2)[C@H](O)CNC2CCOCC2)cc(N2CCCCS2(=O)=O)c1
123

A = CCc1cn2c3c(cc(C(=O)N[C@@H](Cc4ccccc4)[C@H](O)CNC4CCCCC4)cc13)N(CC)S(=O)(=O)CC2
B = CCc1cn2c3c(cc(C(=O)N[C@@H](Cc4ccccc4)[C@H](O)CNC)cc13)N(C)S(=O)(=O)CC2
C = CCc1cn2c3c(cc(C(=O)N[C@@H](Cc4ccccc4)[C@H](O)CNC4CCOCC4)cc13)N(CC(F)(F)F)S(=O)(=O)CC2
## Task Your job: order these 3 records by Ratio IC50, ascending. Output the labels ranked as instructed.
## Result A, C, B
